- System: KRAS PDC multicell spheroid viability;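 also: spheroids exposed to compounds for 7 days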
- assay_notes: Anticancer human tumor 825966-067-R-J1-PDC patient-derived colon carcinoma cell line growth inhibition [KRAS2]
- run_conditions: second compound 3.16 µM; first compound 10 µM; stronger effect = lower value
Doc: threshold 6% (exclusive). Items with viability, T/C beneath it return Met; others return Not met.

- compound: "COc1cc(Nc2ncc3c(n2)-c2ccc(Cl)cc2C(c2c(F)cccc2OC)=NC3)ccc1C(=O)O + COc1cc2nc(C)nc(NC(C)c3cc(N)cc(C(F)(F)F)c3)c2cc1OC1CCOC1"
  label: "Not met"
- compound: "CC(C)NCC(C(=O)N1CCN(c2ncnc3c2C(C)CC3O)CC1)c1ccc(Cl)cc1 (stereo not given) + C=CC(=O)N1CCN(c2nc(OCC3CCCN3C)nc3c2CCN(c2cccc4cccc(C)c24)C3)CC1CC#N"
  label: "Met"
- compound: "CC1OCC2(CCN(c3cnc(Sc4ccnc(N)c4Cl)c(N)n3)CC2)C1N (stereo not given) + CNCc1ccccc1-c1csc(C(C)Nc2nc(C)nc3cc(OC)c(OC)cc23)c1"
  label: "Met"
- compound: "O=C(c1cc(Cc2n[nH]c(=O)c3ccccc23)ccc1F)N1CCN(C(=O)C2CC2)CC1 + C=CC(=O)N1CCN(c2nc(OCC3CCCN3C)nc3c2CCN(c2cccc4cccc(C)c24)C3)CC1CC#N"
  label: "Not met"
